- TARGET OF ASSAY: T1, CTLA-4-hFc (immunogen A; hFc-labeled CTLA-4 extracellular domain protein) (human, UniProt P16410 36-161)
- T1 construct: range 36-161; Made in HEK293 cells, purified on protein A; also called CLTA-4-hFc; CTLA-4 protein; not shown: human IgG Fc fragment (hFc) of the pCpC vector
- T1 sequence (looked up): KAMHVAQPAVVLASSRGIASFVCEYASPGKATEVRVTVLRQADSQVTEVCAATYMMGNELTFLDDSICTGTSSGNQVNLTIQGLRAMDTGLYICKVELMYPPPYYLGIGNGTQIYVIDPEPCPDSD
- METHOD SUMMARY: competition ELISA: CTLA-4-hFc coated, antibody titrated, blocked ligand biotin-labeled B7.2-hFc, HRP-avidin, A450, inhibition (%)

{"BINDER": "97A8D1 (chimeric antibody purified from hybridoma supernatant) (antibody, V domains shown, also called mAb49; mAb049) VH: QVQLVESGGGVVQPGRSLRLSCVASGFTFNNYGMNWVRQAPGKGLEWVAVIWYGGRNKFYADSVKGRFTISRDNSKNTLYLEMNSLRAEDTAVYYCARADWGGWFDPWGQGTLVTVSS VL: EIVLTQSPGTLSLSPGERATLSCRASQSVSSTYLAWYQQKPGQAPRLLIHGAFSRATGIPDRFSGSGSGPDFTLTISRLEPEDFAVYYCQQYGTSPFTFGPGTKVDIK", "IC50 (read off the curve)": "~0.5 nM"}
